- Experimental Target: Ferrochelatase, mitochondrial (Homo sapiens)
- Method Summary: FECH heme synthesis enzyme blockers – biochemical, purified FECH, Ni-mesoporphyrin absorbance, primary screen (AID 1671448)
- Condition Label: Ni-mesoporphyrin absorbance 550 nm, screened at 10 µM (by protocol)
The whole screen tested about 20,000 compounds, of which about 660 (3.3%) were called active.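 How the source made its calls: active means enzyme reaction rate more than 3 SD below the solvent-only control wells on the same plate; inactive means the rest.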 This excerpt belongs to a sample that is enriched for actives.
The reply should name one outcome from TRUE for active, FALSE for inactive

Compound	Experimental Target	Group
CN(C)c1ccc(CNC(=O)c2nc(N3CCCC3)c3oc4ccccc4c3n2)cc1	Ferrochelatase, mitochondrial (Homo sapiens)	FALSE
C=CC[C@@H]1CC=C[C@@H](C)N1C(=O)Cc1c(C)nc(C)[nH]c1=O	Ferrochelatase, mitochondrial (Homo sapiens)	FALSE
COc1ccc(Nc2cc(C)nc(Nc3ccc(NC(=O)c4ccc(C)cc4)cc3)n2)cc1	Ferrochelatase, mitochondrial (Homo sapiens)	FALSE
O=C(Nc1nc2n(n1)C(c1ccc(F)cc1)C=C(c1ccc(Cl)cc1)N2)c1cccnc1 (stereo unspecified)	Ferrochelatase, mitochondrial (Homo sapiens)	FALSE
Cc1ccc(S(=O)(=O)N2CCN(c3cc(-c4ccc(F)cc4)ncn3)CC2)cc1C	Ferrochelatase, mitochondrial (Homo sapiens)	FALSE
OCCCc1nc2ccccc2n1-c1ccc2[nH]ccc2c1	Ferrochelatase, mitochondrial (Homo sapiens)	FALSE
CCc1cc(Sc2ccccc2NC(=O)Cc2ccccc2)n2nc(C)nc2n1	Ferrochelatase, mitochondrial (Homo sapiens)	FALSE
CCc1cc(Sc2ccccc2NC(=O)c2ccc(Br)cc2)n2nc(C)nc2n1	Ferrochelatase, mitochondrial (Homo sapiens)	FALSE

Lookup: What did the test return for "O=C(NCc1ccccn1)C1CCN(c2ccc(-c3ccc(Br)s3)nn2)CC1" ?
Found: FALSE

Lookup: What did the test return for "Cn1c(=O)n(CC(=O)N2CCOCC2)c(=O)c2cnc(-c3ccccc3)nc21" ?
Found: TRUE

Lookup: What did the test return for "C=CCn1c(=O)c2cnc(-c3ccc(Cl)cc3)nc2n(C)c1=O" ?
Found: TRUE

Lookup: What did the test return for "CCc1cc(Sc2ccccc2NC(=O)c2cccc(Cl)c2)n2nc(C)nc2n1" ?
Found: TRUE
